system: rat nerve growth factor (beta-NGF) (rat, UniProt P25427 122-241)
Sequence (P25427 122-241): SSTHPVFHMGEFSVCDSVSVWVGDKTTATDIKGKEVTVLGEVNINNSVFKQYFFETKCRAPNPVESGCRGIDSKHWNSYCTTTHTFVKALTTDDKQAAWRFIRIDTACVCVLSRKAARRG
experiment notes: cell-based or functional assay
Assignment: determine reported IC50, PC12 cell survival for the given binders.
Report as: number unit

Prompt: Any idea what IC50, PC12 cell survival was measured for 1165D4 human IgG4 (antibody, V domains shown) VH: EVQLVQSGAEVKKPGSSVKVSCKASGGTFSTYGISWVRQAPGQGLEWIGGIIPIFDTGNSAQSFQGRVTITADESTSTAYMEVSSLRSDDTAVYYCASSSRIYDLNPSLTAYYDMDVWGQGTMVTVSS VL: QAVLTQPSSVSTPPGQKVTISCSGSSSNIENNYVSWYQQLPGTAPKLLIYDNNKRPSGIPDRFSGSKSGTSATLGITGLQTGDEADYYCGTWDSSLSAWVFGGGTKLTVL ?
Response: 0.41 nM

Prompt: Any idea what IC50, PC12 cell survival was measured for 1214A1 human IgG4 (antibody, V domains shown) VH: EVQLVQSGAEVKKPGSSVRVSCKASGGTFSTYGISWVRQAPGQGLEWIGGIIPIFDTGNSAQSFQGRVTITADESTSTAYMEVSSLRSDDTAVYYCASSSRIYDAHLQAYYDMDVWGQGTMVTVSS VL: QAVLTQPSSVSTPPGQKVTISCSGSSSNIGNNYVSWYQQLPGTAPKLLIYDNNKRPPGIPDRFSGSKSGTSATLGITGLQTGDEADYYCGTRDSSLSAWVFGGGTKLTVL ?
Response: 0.43 nM

Prompt: Any idea what IC50, PC12 cell survival was measured for 1227H8 human IgG4 (antibody, V domains shown) VH: QMQLVQSGAEVKKTGSSVKVSCKASGHTFAYHYLHWVRQAPGQGLEWMGGIIPIFGTTNYAQRFQDRVTITADESTSTAYMELSSLRSEDTAVYYCASADYAWESYQPPQINGVWGRGTMVTVSS VL: QSVLTQPPSVSAAPGQKVTITCSGSTSNIGNNYVSWYQQHPGKAPKLMIYDVSKRPSGVPDRFSGSKSGNSASLDISGLQSEDEADYYCAAWDDSLSEFFFGTGTKLTVL ?
Response: 35 nM

Prompt: Any idea what IC50, PC12 cell survival was measured for G1152H5 human IgG4 (antibody, V domains shown, tested as whole human IgG4; also called germlined 1152H5) VH: QVQLVQSGAEVKKPGSSVKVSCKASGGTFSTYGISWVRQAPGQGLEWMGGIIPIFDTGNSAQSFQGRVTITADESTSTAYMELSSLRSEDTAVYYCARSSRIYDMISSLQPYYDMDVWGQGTMVTVSS VL: QSVLTQPPSVSAAPGQKVTISCSGSSSNIGNNYVSWYQQLPGTAPKLLIYDNNKRPSGIPDRFSGSKSGTSATLGITGLQTGDEADYYCGTWDSSLSAWVFGGGTKLTVL ?
Response: 7.3 nM

Prompt: Any idea what IC50, PC12 cell survival was measured for G1165D4 human IgG4 (antibody, V domains shown) VH: QVQLVQSGAEVKKPGSSVKVSCKASGGTFSTYGISWVRQAPGQGLEWMGGIIPIFDTGNSAQSFQGRVTITADESTSTAYMELSSLRSEDTAVYYCARSSRIYDLNPSLTAYYDMDVWGQGTMVTVSS VL: QSVLTQPPSVSAAPGQKVTISCSGSSSNIENNYVSWYQQLPGTAPKLLIYDNNKRPSGIPDRFSGSKSGTSATLGITGLQTGDEADYYCGTWDSSLSAWVFGGGTKLTV ?
Response: 2.63 nM
